Answer each item with its documented AC50.
# studyTarget: PKM2, human recombinant (Homo sapiens)
# Construct: purchased BPS 50295
# Sequence (P14618 whole entry): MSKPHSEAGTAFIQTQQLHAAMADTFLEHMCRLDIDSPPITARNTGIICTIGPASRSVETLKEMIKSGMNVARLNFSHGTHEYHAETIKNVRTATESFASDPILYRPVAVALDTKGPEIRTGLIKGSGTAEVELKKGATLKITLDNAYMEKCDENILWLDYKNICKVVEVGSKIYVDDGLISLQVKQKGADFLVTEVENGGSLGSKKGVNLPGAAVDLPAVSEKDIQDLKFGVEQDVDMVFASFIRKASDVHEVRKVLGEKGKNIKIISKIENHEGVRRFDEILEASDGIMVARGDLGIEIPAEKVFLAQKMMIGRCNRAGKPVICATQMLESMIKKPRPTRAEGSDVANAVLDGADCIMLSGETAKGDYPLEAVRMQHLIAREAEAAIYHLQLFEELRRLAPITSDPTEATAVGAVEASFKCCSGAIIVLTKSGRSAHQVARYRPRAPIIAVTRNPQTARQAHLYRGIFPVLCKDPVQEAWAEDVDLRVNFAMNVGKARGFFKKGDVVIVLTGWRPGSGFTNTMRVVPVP
# assayComment: PKM2 enzymatic activity assay (Kinase-Glo Plus luminescence)
# Type: biochemical
# conditionContext: 0.1 nM PKM2, 0.1 mM ADP, 0.5 mM PEP, 1 hour, room temperature; read-out: AC50 group

Use the examples below as a reference point.
{"compound": "CC(=O)N1N=C(c2ccc(NS(=O)(=O)c3ccc(F)cc3)cc2)CC1c1ccc(F)c(F)c1 (stereo not drawn) [Compound 27A]", "studyTarget": "PKM2, human recombinant (Homo sapiens)", "reportedMetric": "AC50", "result": "1000 to 10000 nM"}
{"compound": "COc1ccc(C2CC(c3ccc(NS(=O)(=O)c4ccccc4)cc3)=NN2C(C)=O)cc1 (stereo not drawn) [Compound 16A]", "studyTarget": "PKM2, human recombinant (Homo sapiens)", "reportedMetric": "AC50", "result": "1000 to 10000 nM"}
{"compound": "CCS(=O)(=O)Nc1ccc(C2=NN(C(C)=O)C(c3cccs3)C2)cc1 (stereo not drawn) [Compound 67A]", "studyTarget": "PKM2, human recombinant (Homo sapiens)", "reportedMetric": "AC50", "result": "10000 to 100000 nM"}

Each compound below has a recorded value; state its AC50.
1. CCS(=O)(=O)Nc1ccc(C2=NN(C(C)=O)C(c3ccc(OC)cc3)C2)cc1 (single isomer, unassigned) [Compound 2A]
2. CC(=O)N1N=C(c2ccc(NS(C)(=O)=O)cc2)CC1c1ccc2c(c1)OCO2 (stereo not drawn) [Compound 52A]
3. COc1ccc(C2CC(c3ccc(NS(=O)(=O)c4ccc(Cl)cc4)cc3)=NN2C(C)=O)cc1 (racemic) [Compound 26A]
4. CCS(=O)(=O)Nc1ccc(C2=NN(C(C)=O)C(c3ccc(OC)cc3)C2)cc1 (single isomer, unassigned) [Compound 3A]
5. COc1ccc(S(=O)(=O)Nc2ccc(C3=NN(C(C)=O)C(c4ccc(F)cc4)C3)cc2)cc1 (stereo not drawn) [Compound 45A]

Output:
["≤ 1000 nM", "≤ 1000 nM", "≤ 1000 nM", "≤ 1000 nM", "≤ 1000 nM"]

Hi! Can you tell me AC50 for each of these compounds?
1. COc1ccc([C@@H]2CC(c3ccc(NS(=O)(=O)c4ccc(F)cc4)cc3)=NN2C(C)=O)cc1 [Compound 13A]
2. COc1ccc(C2CC(c3ccc(NS(=O)(=O)c4c(F)cccc4F)cc3)=NN2C(C)=O)cc1 (stereo not drawn)
3. CC(=O)N1N=C(c2ccc(NS(=O)(=O)c3ccc(F)cc3)cc2)CC1c1ccc(F)cc1 (racemic) [Compound 25A]
4. COc1ccc(C2CC(c3ccc(NS(=O)(=O)c4c(F)cccc4F)cc3)=NN2C(=O)c2ccco2)cc1 (stereo not drawn) [Compound 11A]
5. CC(=O)N1N=C(c2ccc(NS(=O)(=O)c3ccc(F)cc3)cc2)CC1c1ccc2c(c1)CCO2 (stereo not drawn) [Compound 22A]
6. CC(=O)N1N=C(c2ccc(NS(=O)(=O)c3ccc(F)cc3)cc2)CC1c1ccc2c(c1)OCCO2 (stereo not drawn)
7. COc1ccc(C2CC(c3ccc(NS(=O)(=O)c4ccc(F)cc4)cc3)=NN2C(C)=O)cc1 (single isomer, unassigned) [Compound 12A]

Output:
["≤ 1000 nM", "≤ 1000 nM", "≤ 1000 nM", "1000 to 10000 nM", "≤ 1000 nM", "1000 to 10000 nM", "10000 to 100000 nM"]
